Target: T1, rat alpha CGRP (SEQ ID NO: 82) (rat)
T1 construct: also called rat αCGRP; rat α-CGRP
T1 peptide: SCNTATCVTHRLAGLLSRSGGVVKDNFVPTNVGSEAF
Assay: SPR, 37 C, mutein captured, CGRP analyte
property.measured: pKd
By convention, pKd is the negative base-10 log of a molar concentration.

Worked cases, pKd given:
>  <binder>
lipocalin mutein SEQ ID NO: 26 (designed binder, biotinylated by NHS chemistry for capture in SPR) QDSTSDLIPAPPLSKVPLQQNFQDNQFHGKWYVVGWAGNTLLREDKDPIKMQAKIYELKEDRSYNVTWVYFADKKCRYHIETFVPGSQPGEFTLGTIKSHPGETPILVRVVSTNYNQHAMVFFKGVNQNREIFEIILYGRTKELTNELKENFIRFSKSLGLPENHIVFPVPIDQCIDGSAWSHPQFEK

>  <pKd>
10.82

$$$$
>  <binder>
lipocalin mutein SEQ ID NO: 19 (designed binder, biotinylated by NHS chemistry for capture in SPR) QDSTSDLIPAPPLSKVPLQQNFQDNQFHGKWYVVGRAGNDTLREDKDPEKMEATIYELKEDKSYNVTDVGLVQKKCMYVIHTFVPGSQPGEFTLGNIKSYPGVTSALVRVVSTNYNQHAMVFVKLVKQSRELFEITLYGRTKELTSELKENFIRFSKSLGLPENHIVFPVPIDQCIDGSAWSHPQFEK

>  <pKd>
10.62

$$$$

Now let's try a different one.
QUERY: Which measured pKd value corresponds to lipocalin mutein SEQ ID NO: 15 (designed binder, biotinylated by NHS chemistry for capture in SPR) QDSTSDLIPAPPLSKVPLQQNFQDNQFHGKWYVVGRAANDRLREDKDPEKMEATIYELKEDKSYNVTDVGFSRKKCIYVIHTFVPGSQPGEFTLGNIKSYPGTTSGLVRVVSTNYNQHAMVFFKVVGQNRESFEITLYGRTKELTSELKENFIRFSKSLGLPENHIVFPVPIDQCIDGSAWSHPQFEK ?
RESULT: 9.77
